Test system: mouse
measurementProtocol: Comparative toxicity study (LD0, LD50) and therapeutic index
runConditions: LD0 expressed in mg/mouse
endpoint: LD0 (zero lethal dose or maximal permissible dose) (mg/mouse)
Give the quantity in mg/mouse, number only.

CN(C)CCN1C(=O)c2cccc3cc([N+](=O)[O-])cc(c23)C1=O; 0.2
O=C1c2cccc3cc([N+](=O)[O-])cc(c23)C(=O)N1CCN1CCCC1; 0.2
O=C1c2cccc3cc([N+](=O)[O-])cc(c23)C(=O)N1CCN1CCCCC1; 0.5
CCN(CC)CCN1C(=O)c2cccc3cc([N+](=O)[O-])cc(c23)C1=O; 0.15

Now look at this entry.
Recorded LD0 (zero lethal dose or maximal permissible dose) (molecule Sc1ncnc2nc[nH]c12 [6-mercaptopurine, reference compound] ): 1
